biological target: Recombinant human IL-1β (BioLegend 579404) (human, UniProt P01584 117-269); assay: cell-based or functional assay
Starred links: 1 amine or outer side, 2 acyl side, 3 side chain; linkers in the order of their positions; H or OH if unused. Non-standard residues stand in square brackets, D forms with d. No end group written: not given here. dPro(4R-(4-pyridylmethyl)) = O=C(O)[C@H]1C[C@@H](Cc2ccncc2)CN1; Ala(piperidin-4-yl) = O=C([C@H](CC1CCN([*:3])CC1)N[*:1])[*:2]; Trp(βS-Me,4-F) = C[C@@H](c1c[nH]c2cccc(F)c12)[C@H](N)C(=O)O; Bip(4'-CONH2) = NC(=O)c1ccc(-c2ccc(C[C@H](N)C(=O)O)cc2)cc1; Bip(4'-COOH) = N[C@@H](Cc1ccc(-c2ccc(C(=O)O)cc2)cc1)C(=O)O; Ala(1-bicyclo(1.1.1)pentyl) = N[C@@H](CC12CC(C1)C2)C(=O)O; dPro(4R-Bzl(4-F)) = O=C(O)[C@H]1C[C@@H](Cc2ccc(F)cc2)CN1; dPro(3S-(4-F-Bn)) = O=C(O)[C@@H]1NCC[C@@H]1Cc1ccc(F)cc1; Ala(pyrimidin-5-yl) = N[C@@H](Cc1cncnc1)C(=O)O; Phe(4-COOH) = N[C@@H](Cc1ccc(C(=O)O)cc1)C(=O)O; Pro(cis-4-F) = O=C(O)[C@@H]1C[C@H](F)CN1; Ala(4-THP) = N[C@@H](CC1CCOCC1)C(=O)O; cisHyp = O=C(O)[C@@H]1C[C@H](O)CN1; d(αMeD) = C[C@@](N)(CC(=O)O)C(=O)O; d(αMeN) = C[C@@](N)(CC(N)=O)C(=O)O; 4Pal = N[C@@H](Cc1ccncc1)C(=O)O; αMeD = C[C@](N)(CC(=O)O)C(=O)O; d(αMeS) = C[C@@](N)(CO)C(=O)O; αMeK = C[C@](N)(CCCCN)C(=O)O; hSer = N[C@@H](CCO)C(=O)O; Dab = NCC[C@H](N)C(=O)O; Aib = CC(C)(N)C(=O)O
# MRC5 IC50 listing for each entry below
TEST_READOUT: MRC5 IC50 (nM)

INSERT INTO results (binder, assay_value) VALUES
  ('cyclo([Bip(4''-CONH2)][Ala(1-bicyclo(1.1.1)pentyl)][Phe(4-COOH)]G[Pro(cis-4-F)][Trp(βS-Me,4-F)][Aib]SW[d(αMeN)][Ala(4-THP)]Q[Dab]G[dPro(3S-(4-F-Bn))]) (ring closure inferred; not fully specified (bridges); printed as Bip4CONH2-AlaPent-Phe4COOH-G-Proc4F-SbMeW4F-Aib-S-W-daMeN-AlaTHP4-Q-Dab-G-dProc3Bn4F, cyclic (macrolactam)) [SEQ ID NO: 217]', 0.028),
  ('cyclo([Bip(4''-COOH)][4Pal][Phe(4-COOH)]G[Pro(cis-4-F)][Trp(βS-Me,4-F)][Aib]SW[αMeD][Ala(pyrimidin-5-yl)]Q[Dab]G[dPro(4R-Bzl(4-F))]) (ring closure inferred; not fully specified (bridges); printed as Bip4CO2H-4Pal-Phe4COOH-G-Proc4F-SbMeW4F-Aib-S-W-aMeD-PyrimAla-Q-Dab-G-dProc4Bn4F) [SEQ ID NO: 141]', 0.011),
  ('cyclo([Bip(4''-COOH)][Ala(1-bicyclo(1.1.1)pentyl)][Phe(4-COOH)]G[Pro(cis-4-F)][Trp(βS-Me,4-F)][Aib]SW[d(αMeD)][Ala(pyrimidin-5-yl)]Q[Dab]G[dPro(4R-(4-pyridylmethyl))]) (ring closure inferred) [SEQ ID NO: 155]', 0.011),
  ('cyclo([Bip(4''-COOH)][Ala(1-bicyclo(1.1.1)pentyl)][Phe(4-COOH)]G[Pro(cis-4-F)][Trp(βS-Me,4-F)][Aib]EW[αMeK][Ala(piperidin-4-yl)]Q[Dab]G[dPro(4R-Bzl(4-F))]) (ring closure inferred) [SEQ ID NO: 166]', 0.039),
  ('cyclo([Bip(4''-COOH)][4Pal][Phe(4-COOH)]G[Pro(cis-4-F)][Trp(βS-Me,4-F)][Aib]SW[αMeD][Ala(4-THP)]Q[Dab]G[dPro(4R-(4-pyridylmethyl))]) (ring closure inferred; not fully specified (bridges); printed as Bip4CO2H-4Pal-Phe4COOH-G-Proc4F-SbMeW4F-Aib-S-W-aMeD-AlaTHP4-Q-Dab-G-dProc4CH24Pal, cyclic (macrolactam)) [SEQ ID NO: 200]', 0.014),
  ('cyclo([Bip(4''-COOH)][4Pal][Phe(4-COOH)]G[Pro(cis-4-F)][Trp(βS-Me,4-F)][Aib][hSer]W[αMeK][Ala(pyrimidin-5-yl)]Q[Dab]G[dPro(4R-Bzl(4-F))]) (ring closure inferred; not fully specified (bridges); printed as Bip4CO2H-4Pal-Phe4COOH-G-Proc4F-SbMeW4F-Aib-hS-W-aMeK-PyrimAla-Q-Dab-G-dProc4Bn4F) [SEQ ID NO: 133]', 0.021),
  ('[Bip(4''-COOH)][Ala(1-bicyclo(1.1.1)pentyl)][Phe(4-COOH)]G[cisHyp][Trp(βS-Me,4-F)][Aib]SW[αMeD][Ala(4-THP)]Q[Dab]G[dPro(4R-(4-pyridylmethyl))] (lactam (positions not given here); also: macrolactam ring, closure sites not given here) [SEQ ID NO: 191]', 0.021),
  ('[Bip(4''-COOH)][4Pal][Phe(4-COOH)]G[cisHyp][Trp(βS-Me,4-F)][Aib]SW[d(αMeS)][Ala(pyrimidin-5-yl)]Q[Dab]G[dPro(4R-(4-pyridylmethyl))] (lactam (positions not given here); also: macrolactam ring, closure sites not given here) [SEQ ID NO: 195]', 0.013),
  ('cyclo([Bip(4''-CONH2)][Ala(1-bicyclo(1.1.1)pentyl)][Phe(4-COOH)]G[Pro(cis-4-F)][Trp(βS-Me,4-F)][Aib]SW[d(αMeS)][Ala(4-THP)]Q[Dab]G[dPro(3S-(4-F-Bn))]) (ring closure inferred; not fully specified (bridges); printed as Bip4CONH2-AlaPent-Phe4COOH-G-Proc4F-SbMeW4F-Aib-S-W-daMeS-AlaTHP4-Q-Dab-G-dProc3Bn4F, cyclic (macrolactam)) [SEQ ID NO: 216]', 0.008);
